System: SK-OV-3
testDescription: NCI tumour cell line growth inhibition, 48 h
Activity calls are given as the source filed them. No stated cut-off is given here; in the data, active = GI50 up to about 1.1 µM and inactive = higher.
measuredProperty: GI50

| molecule | measuredProperty | val |
| --- | --- | --- |
| NS(=O)(=O)c1ccc(CNC(=S)NC(=O)Nc2ccc(Cl)c(Cl)c2)cc1 | GI50 | 19.6 µM (inactive) |
| C=CCN(C(C)=O)c1cc(OCc2ccccc2)c2c(c1)c(C)cn2S(=O)(=O)c1ccccc1 | GI50 | 16.1 µM (inactive) |
| Cc1ccccc1NC(=O)/C(=N\NC(N)=S)C(C#N)c1ccccc1 (stereo unspecified) | GI50 | > 100 µM (inactive) |

Simply: CCC1(CC)C(=O)NC(=S)N=C1N , SK-OV-3, GI50 = > 100 µM (inactive)

Simply: O/N=C1/CC2(N3CCOCC3)C3CC/C(=N\O)C2CC1(Cc1ccccc1)C3 (stereo unspecified) , SK-OV-3, GI50 = > 100 µM (inactive)

Simply: O=c1[nH]c(=O)n(C2CC(O)C(CO)O2)cc1/N=N/NCc1ccccc1 (stereo unspecified) , SK-OV-3, GI50 = > 100 µM (inactive)

====

GI50 reference
Tested on: NCI/ADR-RES
testDescription: NCI tumour cell line growth inhibition, 48 h
The source made the active and inactive calls. No stated cut-off is given here; in the data, active = GI50 up to about 1.1 µM and inactive = higher.

| molecule | studySystem | measuredProperty | val |
| --- | --- | --- | --- |
| O=C1Nc2ccc(Br)cc2C1=Nc1cccnc1 | NCI/ADR-RES | GI50 | 24.8 µM (inactive) |

// GI50 value for COC(=O)[C@@H]1CN(C(=O)c2ccccc2)C(=O)N1 : > 100 µM (inactive)

// GI50 value for O=C(O)CN1C=C(C(=O)c2cc3ccccc3n2S(=O)(=O)c2ccccc2)CCC1 : 66.1 µM (inactive)

// GI50 value for O=C(O)C1(Cc2ccc3c(c2)CCC3)Cc2ccccc2C1 : 78.2 µM (inactive)

// GI50 value for CCc1ncc(CO)n1Cc1cccc2ccccc12 : 50.9 µM (inactive)

// GI50 value for Cc1c(C)n(-c2ccccc2)c2nc(S(C)(=O)=O)nc(S(C)(=O)=O)c12 : 23.1 µM (inactive)

// GI50 value for CCOP(=O)(OCC)[C@H]1OC(C)(C)O[C@@H]1CO : > 100 µM (inactive)

// GI50 value for Cc1cn(S(=O)(=O)c2ccccc2)c2c(OCc3ccccc3)cc(NC(=O)c3cc4cc([N+](=O)[O-])ccc4s3)cc12 : > 100 µM (inactive)

// GI50 value for COc1cc(OC)c2c(c1)OC(c1cccnc1)C(c1ccccc1)C2=O (stereo not given) : 72.1 µM (inactive)

// GI50 value for CN(CCN)[C@H](CSSC[C@@H](c1ccccc1O)N(C)CCN)c1ccccc1O : 6.1 µM (inactive)

====

Test system: NCI-H226
testDescription: NCI tumour cell line growth inhibition, 48 h
Active and inactive are the calls of the source. Rule as the data show it: active = GI50 up to about 1.1 µM and inactive = higher.
Assign a class; possible classes are y for active, n for inactive

Record excerpt, results attached:
| compound | classification |
| --- | --- |
| CCN(CC)CSc1nc2ccccc2s1 | n |
| Cc1ccccc1NC(=O)/C=N/O | n |
| O=C(Nc1ccccc1)n1cc(-c2ccccn2)c(N2CCOCC2)n1 | n |
| C/C(CC(=O)Nc1ccc(Cl)cc1)=N\NC(=O)C[n+]1ccccc1 | n |
| O=C1CC(Br)c2c(Br)sc(Br)c21 (stereo unspecified) | n |
| O=C1NC(=O)C(CC(C(=O)C(=O)Nc2ccccc2Cl)C(=O)c2ccc3ccccc3c2)C(=O)N1 (stereo unspecified) | n |
| CN(C)c1ccc(/N=N\c2cccc3ncccc23)cc1 | n |
| O=C(O)CCCC(=O)Nn1c(Cc2ccc(Cl)cc2)n[nH]c1=O | n |
| Oc1c2c(nc3cc4c(cc13)OCO4)-c1ccccc1CCC2 | n |
| C=CCc1[nH]c2c(OCc3ccccc3)cc(N(CC=C)C(C)=O)cc2c1C | n |

So what was the verdict on COc1cc2c(c(OC)c1OC)-c1ccc(SC)c(=O)cc1[C@@H](NCc1ccc(C#N)cc1)CC2 in this test? y

So what was the verdict on O=c1c2c3c(sc2nc2n1NC=NN2)CCCC3 in this test? n

So what was the verdict on O=C(O)CNc1c2ccccc2nc2ccccc12 in this test? n

So what was the verdict on COc1cc2c3c(n(Cc4ccccc4)c(=O)c2cc1OC)-c1ccccc1C3=O in this test? n

So what was the verdict on CCCCCCCCCCCCC(Br)C(C)=O (stereo unspecified) in this test? n

So what was the verdict on CCOC(=O)C1(C#N)C2(C#N)C(N)=NC(ON=C(C)C)(ON=C(C)C)C12C#N (stereo unspecified) in this test? n

So what was the verdict on Cc1ccc(S(=O)(=O)N2CCN(CCO)CCN(S(=O)(=O)c3ccc(C)cc3)CCN(CCO)CC2)cc1 in this test? n

So what was the verdict on CC1=NN=C(N)N/C1=C/C(Sc1ccc(Cl)cc1)c1cccs1 (stereo unspecified) in this test? n

So what was the verdict on COC(=O)C(=O)C(C(=O)C(=O)Nc1ccc(C)cc1C)c1nc2ccccc2nc1O (stereo unspecified) in this test? n

So what was the verdict on CCCC[C@@H](C)/C=C1\CN2CCC[C@H]2[C@@](C)(OCc2ccccc2)[C@@H]1O in this test? n

So what was the verdict on CC(=O)OC1CC2OC(Cc3ccccc32)O1 (stereo unspecified) in this test? n

So what was the verdict on O=c1[nH]c(=O)n(C2CC(O)C(CO)O2)cc1/N=N/NCc1ccccc1 (stereo unspecified) in this test? n

So what was the verdict on CCOC(=O)N/N=C(\CC)NO in this test? n

So what was the verdict on COc1cc(NC(C)=O)c2[nH]c3c(C)cc(NC(C)=O)c(C)c3c2c1 in this test? n

So what was the verdict on C/C(=C\CNc1ncnc2c1ncn2CCC#N)CO in this test? n

So what was the verdict on COC(=O)C1Cc2cccc(C)c2C1 (stereo unspecified) in this test? n

So what was the verdict on CC12CCC(=O)C[C@H]1CCC(OC=O)C2Br (stereo partly specified) in this test? n

So what was the verdict on C=CCNC(=O)CN(CC(=O)O)C1CCCCC1N(CC(=O)O)CC(=O)O (stereo unspecified) in this test? n

So what was the verdict on Nc1ncnc2c1ncn2C1OC(CO)=CC1O (stereo unspecified) in this test? n

====

Test system: A549
testDescription: NCI tumour cell line growth inhibition, 48 h
Calls of active or inactive are those of the source. No stated cut-off is given here; in the data, active = GI50 up to about 1.1 µM and inactive = higher. Square brackets hold non-standard residues; d marks the D form. Peptide text beside a SMILES is read from it. 2Nal = N[CH](Cc1ccc2ccccc2c1)C(=O)O
measuredProperty: GI50

As a guide, the following entries are already answered.
| compound | GI50 |
| --- | --- |
| CCc1c(Cc2cc(C)cc(C)c2)n2c(nc1=O)SCC2CBr (centres undefined) | > 50 µM (inactive) |
| Cn1c(=O)c2nc(COCc3nc4c(=O)n(C)c(=O)n(C)c4[nH]3)[nH]c2n(C)c1=O | > 100 µM (inactive) |
| Cc1ccc(Sc2ccc(C)cc2[N+](=O)[O-])c([N+](=O)[O-])c1 | > 100 µM (inactive) |
| CC1=CC[C@@]2(C)[C@@H]([C@@H]1C)[C@H]1CC[C@@H]3[C@@]4(C)CC[C@H](O)C(C)(C)[C@@H]4CC[C@@]3(C)[C@]1(C)C[C@@H]2O | 12.6 µM (inactive) |
| N#CC(c1ccccn1)c1nc2ccccc2[nH]1 (centres undefined) | > 100 µM (inactive) |
| CC(C)C(NC(=O)C(CCCCN)NC(=O)C(Cc1c[nH]c2ccccc12)NC(=O)C(Cc1ccc(O)cc1)NC(=O)C(CS)NC(=O)C(N)Cc1ccc2ccccc2c1)C(=O)NC(CS)C(=O)NC(C(N)=O)C(C)O (centres undefined) (H-[2Nal]CYWKVCT-NH2; configuration not given here) | > 12.5 µM (inactive) |
| COC(c1ccccc1)C(c1ccccc1)N1CCOCC1 (centres undefined) | > 100 µM (inactive) |
| O=c1[nH]c(=O)n(C2CC(O)C(CO)O2)cc1/N=N/NCc1ccccc1 (centres undefined) | > 100 µM (inactive) |
| COc1cc2c(cc1OC)[C@@H]([C@H](O)c1ccccc1)NCC2 | > 100 µM (inactive) |
| Cc1cc(C)c(S(=O)(=O)N(CCCCCCN)OCCCON(CCCCCCN)S(=O)(=O)c2c(C)cc(C)cc2C)c(C)c1 | 1.72 µM (inactive) |

Shifting focus to the compound that follows.
Simply: Oc1cccc2ccc(SSc3ccc4cccc(O)c4n3)nc12 , A549, GI50 = 31 µM (inactive)

====

Test system: KM-20L2
testDescription: NCI tumour cell line growth inhibition, 48 h
Calls of active or inactive are those of the source. Cut-off read from the data, not from the text of the source: active = GI50 up to about 1.1 µM and inactive = higher.
measuredProperty: GI50

// GI50 value for CC(=O)Nc1c(Nc2ccccc2)[nH]c(C)nc1=S : > 100 µM (inactive)

// GI50 value for CCNC(=O)COc1ccc(Cl)cc1Cl : > 100 µM (inactive)

// GI50 value for COc1cccc(N[C@@H]2c3cc4c(cc3C(c3cc(OC)c(O)c(OC)c3)[C@H]3C(=O)OCC32)OCO4)c1 (stereo not given in full) : 1.46 µM (inactive)

// GI50 value for CC(=O)OCC1OC(N2C(=O)C(=O)c3ccccc32)C(OC(C)=O)C(OC(C)=O)C1OC(C)=O (stereo not given) : > 100 µM (inactive)

// GI50 value for CCOC12OC3=C(CC1CC1=C(CCC1=O)O2)C(=O)CC3 (stereo not given) : > 100 µM (inactive)
